Test system: human Factor 11 mRNA
Experiment: Dose-dependent antisense inhibition of human Factor 11 in HepG2 cells, lipofectin 9.375-150 nM (Example 2)
Format: cell-based
Settings: 150 nM, ~16 h
Strand notation (5' to 3'): a small letter for the sugar, then the base; units joined by * are phosphorothioate-linked, units joined directly phosphodiester-linked; [ ] holds rarer units or linkages, { } end groups; capitals alone tell only the bases. e = 2'-O-(2-methoxyethyl) (MOE); [5mC] = 5-methylcytosine; d = 2'-deoxy (DNA)
Property name: percent inhibition of Factor 11 at 150 nM (%)
Answers are plain numbers, in %.

Reference set, count: 2
- Substance: "412203 (antisense eA*eA*eT*eG*eT*d[5mC]*dT*dT*dT*dG*dT*dT*dG*d[5mC]*dA*eA*eG*e[5mC]*eG*e[5mC]) [compound 412203]"
  Recorded measurement: 82
- Substance: "413476 (antisense eT*eT*eG*eA*eG*dA*dT*dT*d[5mC]*dT*dT*dT*dG*dG*dG*e[5mC]*e[5mC]*eA*eT*eT) [compound 413476]"
  Recorded measurement: 82

Turning now to a further record.
Could you tell me which percent inhibition of Factor 11 at 150 nM is on file for 413482 (antisense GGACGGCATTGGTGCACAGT; 5-10-5 MOE gapmer, further chemistry not given here) [compound 413482] ?
82

* * *

System: IL-1β, IL-6, IFN-γ, TNF-α, IL-8, MIP-1α, MCP-1, MIP-1β, RANTES
Assay: Cytokine and chemokine assays in cynomolgus monkeys (Example 46)
Type: in vivo
Conditions: day 55
Strand notation (5' to 3'): a small letter for the sugar, then the base; units joined by * are phosphorothioate-linked, units joined directly phosphodiester-linked; [ ] holds rarer units or linkages, { } end groups; capitals alone tell only the bases. e = 2'-O-(2-methoxyethyl) (MOE); [5mC] = 5-methylcytosine; d = 2'-deoxy (DNA)
Property name: TNF-α level (pg/mL)
One number for each entry, in pg/mL.

- Substance: "ISIS 449711: 3-8-3, 4-8-4, 2-10-2, 3-10-3 or 4-10-4 MOE microwalk gapmer (Table 46) (antisense eA*e[5mC]*dA*dG*dT*dT*dT*d[5mC]*dT*dG*dG*d[5mC]*eA*eG)"
  TNF-α level [pg/mL]: 31
- Substance: "ISIS 416850: MOE gapmer, nucleobases 1275 to 1318 of SEQ ID NO: 1 (Table 8) (antisense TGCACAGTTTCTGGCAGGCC; MOE gapmer, wing and gap sizes not given here)"
  TNF-α level [pg/mL]: 16
- Substance: "ISIS 445522: 5-8-5 or 6-8-6 MOE microwalk gapmer (Table 44) (antisense eG*e[5mC]*eA*e[5mC]*eA*dG*dT*dT*dT*d[5mC]*dT*dG*dG*e[5mC]*eA*eG*eG*e[5mC])"
  TNF-α level [pg/mL]: 18

Parameter requested: TNF-α level. Apply to each item below.
1. ISIS 445531: 5-8-5 or 6-8-6 MOE microwalk gapmer (Table 44) (antisense eG*eG*e[5mC]*eA*eT*dT*dG*dG*dT*dG*d[5mC]*dA*d[5mC]*eA*eG*eT*eT*eT)
2. ISIS 449710: 3-8-3, 4-8-4, 2-10-2, 3-10-3 or 4-10-4 MOE microwalk gapmer (Table 46) (antisense e[5mC]*eA*e[5mC]*dA*dG*dT*dT*dT*d[5mC]*dT*dG*dG*d[5mC]*eA*eG*eG)

16
26

* * *

Experiment: Hematology assays in cynomolgus monkeys (Example 45)
Format: in vivo
Conditions: day 78
Property name: neutrophils (%)
One number for each entry, in %.

- Substance: "ISIS 416850: MOE gapmer, nucleobases 1275 to 1318 of SEQ ID NO: 1 (Table 8) (antisense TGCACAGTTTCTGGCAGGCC; MOE gapmer, wing and gap sizes not given here)"
  neutrophils [%]: 42

Attention now shifts to the item below.
Tell me the measured neutrophils of ISIS 416864: MOE gapmer, nucleobases 1275 to 1318 of SEQ ID NO: 1 (Table 8) (antisense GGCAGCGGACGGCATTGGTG; MOE gapmer, wing and gap sizes not given here) , please.
48

* * *

Test: Hematology assays in cynomolgus monkeys (Example 45)
Assay type: in vivo
Conditions: day 8; escalating dose regimen
Kindly state WBC count for each of the entries shown.
One number for each entry, in µL⁻¹.

The cases that follow already have their WBC count on record.
- Substance: "ISIS 416858: MOE gapmer, nucleobases 1275 to 1318 of SEQ ID NO: 1 (Table 8) (antisense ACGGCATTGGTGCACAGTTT; MOE gapmer, wing and gap sizes not given here)"
  Unit annotation: "µL⁻¹"
  WBC count: 12000
- Substance: "ISIS 417002: MOE gapmer, nucleobases 1275 to 1318 of SEQ ID NO: 1 (Table 8) (antisense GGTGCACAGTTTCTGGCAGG; MOE gapmer, wing and gap sizes not given here)"
  Unit annotation: "µL⁻¹"
  WBC count: 10000
- Substance: "ISIS 416838: MOE gapmer, nucleobases 1018 to 1042 of SEQ ID NO: 1 (Table 6) (antisense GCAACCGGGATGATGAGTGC; MOE gapmer, wing and gap sizes not given here)"
  Unit annotation: "µL⁻¹"
  WBC count: 10000
- Substance: "ISIS 416864: MOE gapmer, nucleobases 1275 to 1318 of SEQ ID NO: 1 (Table 8) (antisense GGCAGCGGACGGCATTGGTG; MOE gapmer, wing and gap sizes not given here)"
  Unit annotation: "µL⁻¹"
  WBC count: 11000

Below: the item to evaluate.
Can you look up the measured WBC count of ISIS 416850: MOE gapmer, nucleobases 1275 to 1318 of SEQ ID NO: 1 (Table 8) (antisense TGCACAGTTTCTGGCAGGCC; MOE gapmer, wing and gap sizes not given here) for me?
10000

* * *

Experiment: Tolerability in Sprague-Dawley rats: hematology assays (Example 35)
Conditions: 50 mg/kg s.c. twice per week for 6 weeks, title says % control
Property name: MCHC
Enter the number, and then the unit.

Study these solved cases before continuing.
- Substance: "ISIS 416858: MOE gapmer, nucleobases 1275 to 1318 of SEQ ID NO: 1 (Table 8) (antisense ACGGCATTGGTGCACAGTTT; MOE gapmer, wing and gap sizes not given here)"
  Recorded measurement: "1%"
- Substance: "ISIS 416850: MOE gapmer, nucleobases 1275 to 1318 of SEQ ID NO: 1 (Table 8) (antisense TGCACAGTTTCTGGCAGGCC; MOE gapmer, wing and gap sizes not given here)"
  Recorded measurement: "2%"
- Substance: "ISIS 417002: MOE gapmer, nucleobases 1275 to 1318 of SEQ ID NO: 1 (Table 8) (antisense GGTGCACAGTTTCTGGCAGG; MOE gapmer, wing and gap sizes not given here)"
  Recorded measurement: "5%"

Report MCHC for every entry below.
1. ISIS 416864: MOE gapmer, nucleobases 1275 to 1318 of SEQ ID NO: 1 (Table 8) (antisense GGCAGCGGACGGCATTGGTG; MOE gapmer, wing and gap sizes not given here)
2. ISIS 416838: MOE gapmer, nucleobases 1018 to 1042 of SEQ ID NO: 1 (Table 6) (antisense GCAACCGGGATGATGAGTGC; MOE gapmer, wing and gap sizes not given here)

4%
5%

* * *

Assign PT ratio (INR) to each entry below.
Tested on: blood coagulation
Test: PT and aPTT assay in cynomolgus monkeys (Example 46)
Type: in vivo
Conditions: Day 45; platelet poor plasma; relative to PBS group
Strand notation (5' to 3'): a small letter for the sugar, then the base; units joined by * are phosphorothioate-linked, units joined directly phosphodiester-linked; [ ] holds rarer units or linkages, { } end groups; capitals alone tell only the bases. e = 2'-O-(2-methoxyethyl) (MOE); [5mC] = 5-methylcytosine; d = 2'-deoxy (DNA)
Numbers only.

- Substance: "ISIS 445522: 5-8-5 or 6-8-6 MOE microwalk gapmer (Table 44) (antisense eG*e[5mC]*eA*e[5mC]*eA*dG*dT*dT*dT*d[5mC]*dT*dG*dG*e[5mC]*eA*eG*eG*e[5mC])"
  PT ratio (INR): 0.96
- Substance: "ISIS 449710: 3-8-3, 4-8-4, 2-10-2, 3-10-3 or 4-10-4 MOE microwalk gapmer (Table 46) (antisense e[5mC]*eA*e[5mC]*dA*dG*dT*dT*dT*d[5mC]*dT*dG*dG*d[5mC]*eA*eG*eG)"
  PT ratio (INR): 0.97
- Substance: "ISIS 449708: 3-8-3, 4-8-4, 2-10-2, 3-10-3 or 4-10-4 MOE microwalk gapmer (Table 46) (antisense eA*e[5mC]*eA*dG*dT*dT*dT*d[5mC]*dT*dG*dG*e[5mC]*eA*eG)"
  PT ratio (INR): 0.99
- Substance: "ISIS 449707: 3-8-3, 4-8-4, 2-10-2, 3-10-3 or 4-10-4 MOE microwalk gapmer (Table 46) (antisense e[5mC]*eA*e[5mC]*eA*dG*dT*dT*dT*d[5mC]*dT*dG*dG*e[5mC]*eA*eG*eG)"
  PT ratio (INR): 0.96
- Substance: "ISIS 416858: MOE gapmer, nucleobases 1275 to 1318 of SEQ ID NO: 1 (Table 8) (antisense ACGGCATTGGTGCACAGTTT; MOE gapmer, wing and gap sizes not given here)"
  PT ratio (INR): 1.00
- Substance: "ISIS 449709: 3-8-3, 4-8-4, 2-10-2, 3-10-3 or 4-10-4 MOE microwalk gapmer (Table 46) (antisense eG*e[5mC]*eA*e[5mC]*dA*dG*dT*dT*dT*d[5mC]*dT*dG*dG*d[5mC]*eA*eG*eG*e[5mC])"
  PT ratio (INR): 0.97
- Substance: "ISIS 445531: 5-8-5 or 6-8-6 MOE microwalk gapmer (Table 44) (antisense eG*eG*e[5mC]*eA*eT*dT*dG*dG*dT*dG*d[5mC]*dA*d[5mC]*eA*eG*eT*eT*eT)"
  PT ratio (INR): 1.01
- Substance: "ISIS 449711: 3-8-3, 4-8-4, 2-10-2, 3-10-3 or 4-10-4 MOE microwalk gapmer (Table 46) (antisense eA*e[5mC]*dA*dG*dT*dT*dT*d[5mC]*dT*dG*dG*d[5mC]*eA*eG)"
  PT ratio (INR): 1.01

Recorded PT ratio (INR) for ISIS 416850: MOE gapmer, nucleobases 1275 to 1318 of SEQ ID NO: 1 (Table 8) (antisense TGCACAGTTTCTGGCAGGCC; MOE gapmer, wing and gap sizes not given here) , please?
1.00
